Biological target: Regulator of G-protein signaling 16 (Homo sapiens)
Assay: RGS16-Galphao binding modulators, SAR follow-up, biochemical, multiplexed bead flow cytometry, SAR compounds (AID 2298)
Conditions: bead-based flow cytometry, AF488-Galphao binding to RGS16
assay endpoint: pEC50
Formally, pEC50 is defined as -log10 of the concentration c, with c in mol/L.

Per the record, NS(=O)(=O)c1ccc(N/N=C/c2ccc(O)c(O)c2O)c([N+](=O)[O-])c1 has pEC50 of 7.54

---

Biological target: Regulator of G-protein signaling 16 (Homo sapiens) (UniProt O15492)
Sequence (O15492 whole entry, looked up): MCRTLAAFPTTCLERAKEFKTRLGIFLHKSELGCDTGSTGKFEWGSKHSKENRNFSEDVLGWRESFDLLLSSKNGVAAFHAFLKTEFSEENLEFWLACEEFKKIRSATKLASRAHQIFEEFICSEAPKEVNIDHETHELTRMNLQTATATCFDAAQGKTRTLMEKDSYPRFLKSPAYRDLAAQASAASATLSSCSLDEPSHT
Test: RGS16-Galphao binding modulators, SAR follow-up, biochemical, multiplexed bead flow cytometry, SAR compounds (AID 2298)
Settings: bead-based flow cytometry, AF488-Galphao binding to RGS16; measured here: Ki derived from EC50, inhibitors
assay endpoint: pKi
# log scale: pKi equals minus log10 of the concentration in mol/L

Below: 5 compounds and their reported pKi.
CC(=O)OCCCNc1cc(Sc2nc3ccccc3s2)c2nonc2c1[N+](=O)[O-] ... 6.66
O=c1c2ccccc2sn1-c1ccc(S(=O)(=O)N2CCCC2)cc1 ... 7.70
COC(=O)CCC(=O)Nc1sc(C)c(C)c1C(N)=O ... 5.94
O=C(NCCCN1CCOCC1)c1sc2cc([N+](=O)[O-])ccc2c1Cl ... 6.57
CN=c1scc(C)n1/N=C/c1ccc(O)c(O)c1O ... 6.39

Shift focus to the following entry.
Record O=C1C(Cl)=C(N2CCCCC2)C(=O)C(Cl)=C1c1cnc(N2CCCCC2)s1 / Regulator of G-protein signaling 16 (Homo sapiens) (UniProt O15492), pKi recorded as 7.00
